Entry source: ChEMBL document CHEMBL4411307

# experimentalDetails: Selectivity index, ratio of compound concentration showing <25% hemolysis in mouse RBC to MIC for fluconazole/ITC-resistant Candida albicans ATCC 10231
# Assay type: toxicity
# measurementSetup: mouse red blood cells (RBC), read-out: Selectivity Index
measuredParameter: selectivity ratio

INSERT INTO assay_data (itemsmiles, measuredparameter, experimentalvalue) VALUES
  ('Fc1ccc(N/N=C/c2ccc(-c3cccc(/C=N/Nc4ccc(F)cc4F)c3)cc2)c(F)c1', 'selectivity ratio', '1 to 32');

###

# experimentalDetails: Hemolytic activity in mouse RBC at 3.9 ug/ml after 1 hr relative to control
# Format: ADME, cell-based, Erythrocyte
# measurementSetup: red blood cells (erythrocytes), read-out: Activity
measuredParameter: hemolysis at 1 h, 3.9 ug/ml

INSERT INTO assay_data (itemsmiles, measuredparameter, experimentalvalue) VALUES
  ('C[C@@H](c1ncncc1F)[C@](O)(Cn1cncn1)c1ccc(F)cc1F', 'hemolysis at 1 h, 3.9 ug/ml', '7.5%'),
  ('C/C(=N\Nc1ccc(F)cc1)c1ccc(-c2ccc(/C(C)=N/Nc3ccc(F)cc3)cc2)cc1', 'hemolysis at 1 h, 3.9 ug/ml', '2.6%'),
  ('Fc1cccc(N/N=C/c2ccc(-c3ccc(/C=N/Nc4cccc(F)c4)cc3)cc2)c1', 'hemolysis at 1 h, 3.9 ug/ml', '3.2%');

###

# experimentalDetails: Selectivity index, ratio of CC50 for human A549 cells to MIC for fluconazole/ITC-resistant Candida albicans ATCC 90819
# Format: toxicity
# measurementSetup: read-out: Selectivity Index
Rule: selectivity ratio under 1 gives 0.0, otherwise 1.0.

INSERT INTO results (itemsmiles, group) VALUES
  ('Fc1ccc(N/N=C/c2ccc(-c3ccc(/C=N/Nc4ccc(F)cc4)cc3)cc2)cc1', 0.0),
  ('COc1ccc(N/N=C/c2ccc(-c3cccc(/C=N/Nc4ccc(OC)cc4)c3)cc2)cc1', 1.0),
  ('C/C(=N\Nc1ccc(F)cc1)c1ccc(-c2ccc(/C(C)=N/Nc3ccc(F)cc3)cc2)cc1', 1.0),
  ('Fc1ccccc1N/N=C/c1ccc(-c2cccc(/C=N/Nc3ccccc3F)c2)cc1', 1.0),
  ('C(=N\Nc1ccccc1)/c1ccc(-c2ccc(/C=N/Nc3ccccc3)cc2)cc1', 0.0),
  ('COc1ccc(N/N=C/c2ccc(-c3ccc(/C=N/Nc4ccc(OC)cc4)cc3)cc2)cc1', 1.0),
  ('Fc1ccc(N/N=C/c2ccc(-c3cccc(/C=N/Nc4ccc(F)cc4F)c3)cc2)c(F)c1', 1.0),
  ('Fc1cccc(N/N=C/c2ccc(-c3cccc(/C=N/Nc4cccc(F)c4)c3)cc2)c1', 0.0);

###

# experimentalDetails: Selectivity index, ratio of compound concentration showing <20 to <25% hemolysis in mouse RBC to MIC for fluconazole/ITC-resistant Candida albicans ATCC 10231
# Format: toxicity
# measurementSetup: red blood cells (erythrocytes), read-out: Selectivity Index
measuredParameter: selectivity ratio

INSERT INTO assay_data (itemsmiles, measuredparameter, experimentalvalue) VALUES
  ('C(=N\Nc1ccccc1)/c1ccc(-c2ccc(/C=N/Nc3ccccc3)cc2)cc1', 'selectivity ratio', '1 to 32'),
  ('C(=N\Nc1ccccc1)/c1ccc(-c2cccc(/C=N/Nc3ccccc3)c2)cc1', 'selectivity ratio', '1 to 32');

###

# experimentalDetails: Selectivity index, ratio of CC50 for human A549 cells to MIC for fluconazole/ITC-resistant Candida albicans ATCC MYA-1237
# Assay type: toxicity
# measurementSetup: read-out: Selectivity Index
measuredParameter: selectivity ratio

INSERT INTO results (itemsmiles, measuredparameter, experimentalvalue) VALUES
  ('Fc1ccc(N/N=C/c2ccc(-c3cccc(/C=N/Nc4ccc(F)cc4)c3)cc2)cc1', 'selectivity ratio', 2),
  ('Fc1cccc(N/N=C/c2ccc(-c3ccc(/C=N/Nc4cccc(F)c4)cc3)cc2)c1', 'selectivity ratio', 1),
  ('C(=N\Nc1ccccc1)/c1ccc(-c2ccc(/C=N/Nc3ccccc3)cc2)cc1', 'selectivity ratio', 0.6),
  ('C/C(=N\Nc1ccc(F)cc1)c1ccc(-c2ccc(/C(C)=N/Nc3ccc(F)cc3)cc2)cc1', 'selectivity ratio', 2.1),
  ('COc1ccc(N/N=C/c2ccc(-c3ccc(/C=N/Nc4ccc(OC)cc4)cc3)cc2)cc1', 'selectivity ratio', 2);

###

# experimentalDetails: Selectivity index, ratio of CC50 for human A549 cells to MIC for fluconazole/ITC-resistant Candida albicans ATCC 10231
# Assay type: toxicity
# measurementSetup: read-out: Selectivity Index
measuredParameter: selectivity ratio

INSERT INTO assay_data (itemsmiles, experimentalvalue) VALUES
  ('Fc1cccc(N/N=C/c2ccc(-c3ccc(/C=N/Nc4cccc(F)c4)cc3)cc2)c1', 4),
  ('Fc1ccccc1N/N=C/c1ccc(-c2cccc(/C=N/Nc3ccccc3F)c2)cc1', 2.1),
  ('COc1ccc(N/N=C/c2ccc(-c3cccc(/C=N/Nc4ccc(OC)cc4)c3)cc2)cc1', 9.3),
  ('Fc1ccc(N/N=C/c2ccc(-c3cccc(/C=N/Nc4ccc(F)cc4F)c3)cc2)c(F)c1', 4.2),
  ('Fc1ccc(N/N=C/c2ccc(-c3cccc(/C=N/Nc4ccc(F)cc4)c3)cc2)cc1', 16),
  ('Fc1ccc(N/N=C/c2ccc(-c3ccc(/C=N/Nc4ccc(F)cc4)cc3)cc2)cc1', 2.3),
  ('C(=N\Nc1ccccc1)/c1ccc(-c2cccc(/C=N/Nc3ccccc3)c2)cc1', 16),
  ('Fc1cccc(N/N=C/c2ccc(-c3cccc(/C=N/Nc4cccc(F)c4)c3)cc2)c1', 6),
  ('COc1ccc(N/N=C/c2ccc(-c3ccc(/C=N/Nc4ccc(OC)cc4)cc3)cc2)cc1', 4),
  ('C/C(=N\Nc1ccc(F)cc1)c1ccc(-c2ccc(/C(C)=N/Nc3ccc(F)cc3)cc2)cc1', 8.5),
  ('C(=N\Nc1ccccc1)/c1ccc(-c2ccc(/C=N/Nc3ccccc3)cc2)cc1', 2.3);

###

# experimentalDetails: Selectivity index, ratio of CC50 for human A549 cells to MIC for Aspergillus terreus ATCC MYA-3633
# Type: toxicity
# measurementSetup: read-out: Selectivity Index
The entries below are paired with their reported selectivity ratio.
measuredParameter: selectivity ratio

INSERT INTO results (itemsmiles, experimentalvalue) VALUES
  ('Fc1ccc(N/N=C/c2ccc(-c3ccc(/C=N/Nc4ccc(F)cc4)cc3)cc2)cc1', 0.6),
  ('COc1ccc(N/N=C/c2ccc(-c3cccc(/C=N/Nc4ccc(OC)cc4)c3)cc2)cc1', 0.6),
  ('Fc1ccccc1N/N=C/c1ccc(-c2cccc(/C=N/Nc3ccccc3F)c2)cc1', 0.5),
  ('C(=N\Nc1ccccc1)/c1ccc(-c2cccc(/C=N/Nc3ccccc3)c2)cc1', 2),
  ('C(=N\Nc1ccccc1)/c1ccc(-c2ccc(/C=N/Nc3ccccc3)cc2)cc1', 1.1);

###

The entries below are paired with their reported hemolysis at 1 h, 31.3 ug/ml.
# experimentalDetails: Hemolytic activity in mouse RBC at 31.3 ug/ml after 1 hr relative to control
# Type: ADME, cell-based, Erythrocyte
# measurementSetup: red blood cells (erythrocytes), read-out: Activity
measuredParameter: hemolysis at 1 h, 31.3 ug/ml

INSERT INTO measurements (itemsmiles, experimentalvalue) VALUES
  ('N=C(N)N/N=C/c1ccc(-c2cccc(/C=N/NC(=N)N)c2)cc1', '3.8%'),
  ('Fc1ccc(N/N=C/c2ccc(-c3ccc(/C=N/Nc4ccc(F)cc4)cc3)cc2)cc1', '9.6%'),
  ('Fc1ccc(N/N=C/c2ccc(-c3cccc(/C=N/Nc4ccc(F)cc4F)c3)cc2)c(F)c1', '14.6%'),
  ('Fc1cccc(N/N=C/c2ccc(-c3ccc(/C=N/Nc4cccc(F)c4)cc3)cc2)c1', '10.3%'),
  ('C[C@@H](c1ncncc1F)[C@](O)(Cn1cncn1)c1ccc(F)cc1F', '83%');

###

The entries below are paired with their reported selectivity ratio.
# experimentalDetails: Selectivity index, ratio of CC50 for human A549 cells to MIC for fluconazole/ITC-resistant Candida albicans ATCC 64124
# Assay type: toxicity
# measurementSetup: read-out: Selectivity Index
measuredParameter: selectivity ratio

INSERT INTO results (itemsmiles, measuredparameter, experimentalvalue) VALUES
  ('Fc1ccc(N/N=C/c2ccc(-c3cccc(/C=N/Nc4ccc(F)cc4)c3)cc2)cc1', 'selectivity ratio', 2),
  ('C(=N\Nc1ccccc1)/c1ccc(-c2cccc(/C=N/Nc3ccccc3)c2)cc1', 'selectivity ratio', 1),
  ('Fc1cccc(N/N=C/c2ccc(-c3ccc(/C=N/Nc4cccc(F)c4)cc3)cc2)c1', 'selectivity ratio', 1);

###

# System: Aspergillus flavus
# experimentalDetails: Antifungal activity against Aspergillus flavus ATCC MYA-3631 measured after 48 hrs by CLSI M38-A2 protocol based method
# Assay type: functional
# measurementSetup: ATCC MYA-3631, 48 h
measuredParameter: MIC

INSERT INTO results (itemsmiles, experimentalvalue) VALUES
  ('CC(C)Oc1ccc(N/N=C/c2ccc(-c3ccc(/C=N/Nc4ccc(OC(C)C)cc4)cc3)cc2)cc1', '> 31.3 µg/mL'),
  ('Fc1cc(F)cc(N/N=C/c2ccc(-c3ccc(/C=N/Nc4cc(F)cc(F)c4)cc3)cc2)c1', '> 31.3 µg/mL'),
  ('CC(C)(C)N/N=C/c1ccc(-c2ccc(/C=N/NC(C)(C)C)cc2)cc1', '> 31.3 µg/mL'),
  ('COc1ccc(N/N=C/c2ccc(-c3ccc(/C=N/Nc4ccc(OC)cc4)cc3)cc2)cc1', '> 31.3 µg/mL'),
  ('Fc1cccc(N/N=C/c2ccc(-c3ccc(/C=N/Nc4cccc(F)c4)cc3)cc2)c1', '31.3 µg/mL'),
  ('Fc1ccc(N/N=C/c2ccc(-c3ccc(/C=N/Nc4ccc(F)cc4)cc3)cc2)cc1', '7.8 µg/mL'),
  ('N=C(N)N/N=C/c1ccc(-c2ccc(/C=N/NC(=N)N)cc2)cc1', '> 31.3 µg/mL'),
  ('Brc1ccc(N/N=C/c2ccc(-c3cccc(/C=N/Nc4ccc(Br)cc4)c3)cc2)cc1', '31.3 µg/mL'),
  ('C/C(=N\NC(=N)N)c1ccc(-c2ccc(/C(C)=N/NC(=N)N)cc2)cc1', '> 31.3 µg/mL'),
  ('C/C(=N\Nc1ccc(F)cc1)c1ccc(-c2ccc(/C(C)=N/Nc3ccc(F)cc3)cc2)cc1', '> 31.3 µg/mL'),
  ('COc1ccc(N/N=C(\C)c2ccc(-c3ccc(/C(C)=N/Nc4ccc(OC)cc4)cc3)cc2)cc1', '> 31.3 µg/mL'),
  ('Fc1ccc(N/N=C/c2ccc(-c3cccc(/C=N/Nc4ccc(F)cc4F)c3)cc2)c(F)c1', '7.8 µg/mL');
